measurement-protocol: Pharmacokinetic study in mice
Format: in vivo
condition-set: male, BALB/c, mouse, plasma, ip, 1 mg/kg
Square brackets hold non-standard residues; d marks the D form. Peptide text beside a SMILES is read from it. * marks the point of attachment. Ala(cPent) = N[C@@H](CC1CCCC1)C(=O)O; Cbz = O=C(OCc1ccccc1)*
Reported MRT values for the following molecules.
Answer shape: numeric part, then the unit.

Example molecules with recorded MRT:
INSERT INTO measurements (molecule, obs_value) VALUES
  ('CSc1ncc(Br)c(C(=O)N[C@@H](CCC(=O)O)C(=O)N[C@@H](Cc2ccc3ccccc3c2)C(=O)N[C@@H](CC(C)C)C(=O)N[C@@H]2C[C@H]2c2ccccc2)n1', '1.96 h'),
  ('C[C@H](NC(=O)OCc1ccccc1)C(=O)NCC(=O)N[C@@H](CCC(=O)O)C(=O)N[C@@H](C)C(=O)N[C@@H](CC1CCCC1)C(=O)N[C@@H](Cc1ccc(O)cc1)C(=O)N[C@@H](CCC(=O)O)C(N)=O [MAI-203, reference compound] (Cbz-AGEA[Ala(cPent)]YE-NH2; N-terminus and C-terminus assumed)', '0.43 h');

MRT measured on "CSc1ncc(Br)c(C(=O)N[C@@H](CCC(=O)OC(C)(C)C)C(=O)N[C@@H](Cc2ccc3ccccc3c2)C(=O)N[C@@H](CC(C)C)C(=O)N[C@@H]2C[C@H]2c2ccccc2)n1" = 4.97 h

###

measurement-protocol: Pharmacokinetic study in mice
Assay type: in vivo
condition-set: male, BALB/c, mouse, plasma, ip, 1 mg/kg
Square brackets hold non-standard residues; d marks the D form. Peptide text beside a SMILES is read from it. * marks the point of attachment. Ala(cPent) = N[C@@H](CC1CCCC1)C(=O)O; Cbz = O=C(OCc1ccccc1)*
parameter-measured: Cmax
Answer shape: numeric part, then the unit.

INSERT INTO assay_data (molecule, parameter_measured, obs_value) VALUES
  ('CSc1ncc(Br)c(C(=O)N[C@@H](CCC(=O)O)C(=O)N[C@@H](Cc2ccc3ccccc3c2)C(=O)N[C@@H](CC(C)C)C(=O)N[C@@H]2C[C@H]2c2ccccc2)n1 [AT46]', 'Cmax', '60.8 ng/mL');

Cmax measured on CSc1ncc(Br)c(C(=O)N[C@@H](CCC(=O)OC(C)(C)C)C(=O)N[C@@H](Cc2ccc3ccccc3c2)C(=O)N[C@@H](CC(C)C)C(=O)N[C@@H]2C[C@H]2c2ccccc2)n1 [AT47] = 1460 ng/mL

Cmax measured on C[C@H](NC(=O)OCc1ccccc1)C(=O)NCC(=O)N[C@@H](CCC(=O)O)C(=O)N[C@@H](C)C(=O)N[C@@H](CC1CCCC1)C(=O)N[C@@H](Cc1ccc(O)cc1)C(=O)N[C@@H](CCC(=O)O)C(N)=O [MAI-203, reference compound] (Cbz-AGEA[Ala(cPent)]YE-NH2; N-terminus and C-terminus assumed) = 101 ng/mL

###

Reported Tmax values for the following molecules.
measurement-protocol: Pharmacokinetic study in mice
Type: in vivo
condition-set: male, BALB/c, mouse, plasma, ip, 1 mg/kg
Square brackets hold non-standard residues; d marks the D form. Peptide text beside a SMILES is read from it. * marks the point of attachment. Ala(cPent) = N[C@@H](CC1CCCC1)C(=O)O; Cbz = O=C(OCc1ccccc1)*

Example molecules with recorded Tmax:
INSERT INTO results (molecule, parameter_measured, obs_value) VALUES
  ('C[C@H](NC(=O)OCc1ccccc1)C(=O)NCC(=O)N[C@@H](CCC(=O)O)C(=O)N[C@@H](C)C(=O)N[C@@H](CC1CCCC1)C(=O)N[C@@H](Cc1ccc(O)cc1)C(=O)N[C@@H](CCC(=O)O)C(N)=O [MAI-203, reference compound] (Cbz-AGEA[Ala(cPent)]YE-NH2; N-terminus and C-terminus assumed)', 'Tmax', '15 min'),
  ('CSc1ncc(Br)c(C(=O)N[C@@H](CCC(=O)O)C(=O)N[C@@H](Cc2ccc3ccccc3c2)C(=O)N[C@@H](CC(C)C)C(=O)N[C@@H]2C[C@H]2c2ccccc2)n1 [AT46]', 'Tmax', '49.8 min');

// below: Tmax requested for another molecule
Tmax measured on CSc1ncc(Br)c(C(=O)N[C@@H](CCC(=O)OC(C)(C)C)C(=O)N[C@@H](Cc2ccc3ccccc3c2)C(=O)N[C@@H](CC(C)C)C(=O)N[C@@H]2C[C@H]2c2ccccc2)n1 [AT47] = 100 min
